Target: NAD-dependent deacetylase Sirtuin 1 (human, UniProt Q96EB6)
Sequence (Q96EB6 2-747 limits assumed): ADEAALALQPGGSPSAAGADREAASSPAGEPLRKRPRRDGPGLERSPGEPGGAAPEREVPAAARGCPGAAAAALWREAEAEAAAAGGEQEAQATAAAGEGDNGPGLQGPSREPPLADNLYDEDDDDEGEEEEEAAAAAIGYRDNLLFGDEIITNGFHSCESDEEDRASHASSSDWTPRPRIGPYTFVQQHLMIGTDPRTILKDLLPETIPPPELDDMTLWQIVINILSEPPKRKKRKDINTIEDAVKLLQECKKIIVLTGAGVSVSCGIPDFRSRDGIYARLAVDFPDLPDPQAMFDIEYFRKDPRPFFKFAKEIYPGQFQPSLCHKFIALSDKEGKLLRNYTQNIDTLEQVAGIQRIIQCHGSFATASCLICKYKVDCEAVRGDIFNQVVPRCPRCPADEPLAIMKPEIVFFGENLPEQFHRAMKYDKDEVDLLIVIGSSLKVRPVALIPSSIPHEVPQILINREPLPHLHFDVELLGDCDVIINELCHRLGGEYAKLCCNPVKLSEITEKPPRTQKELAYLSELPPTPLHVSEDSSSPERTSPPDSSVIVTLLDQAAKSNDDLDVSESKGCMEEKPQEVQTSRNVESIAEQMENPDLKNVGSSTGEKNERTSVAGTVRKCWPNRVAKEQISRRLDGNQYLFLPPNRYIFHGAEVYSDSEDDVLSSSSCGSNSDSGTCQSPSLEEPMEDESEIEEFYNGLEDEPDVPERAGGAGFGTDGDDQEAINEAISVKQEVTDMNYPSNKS
Assay: primary screen, delta tm
Set-up: single well (n = 1)
Settings: 10 µM
In all, about 3,200 compounds were measured (“TSA(without NAD+) / Primary screening (TSA) / delta Tm (K)”: median about -0.07, highest 2% from about 0.37 on). Only a selection was taken, and the highest values are over-represented in it overall.
Measurement Kind: TSA(without NAD+) / Primary screening (TSA) / delta Tm (K)

| Smiles Text | Unit Of Measurement | Measured Result |
| --- | --- | --- |
| COc1ccc(NC(=O)c2cccc(S(=O)(=O)N(C)c3ccc(OC)cc3)c2)cc1 | K | 0.03 |
| CC(=O)Nc1ccc(CNCc2ccccc2CN2CCCC2)cc1 | K | -0.12 |
| CCc1c(C)c(C#N)c2nc3ccccc3n2c1Cl | K | -0.08 |
| COc1ccc(N(C)S(=O)(=O)c2cccc(C(=O)Nc3ccc(Br)cc3F)c2)cc1 | K | 0.07 |
| CCCOC(=O)c1ccc(NC(=O)c2cccc(S(=O)(=O)N(C)c3ccc(OC)cc3)c2)cc1 | K | 0.35 |
| COc1ccc(N(C)S(=O)(=O)c2cccc(C(=O)Nc3cccc4ccccc34)c2)cc1 | K | -0.13 |
| NC(=O)NCc1ccc(C(=O)Nc2nc(-c3c[nH]c(C(N)=O)c3)cs2)cc1 | K | -0.03 |
| COc1ccc(N(C)S(=O)(=O)c2cccc(C(=O)Nc3ccc(Br)cc3)c2)cc1 | K | 0.36 |
